// provenance: ChEMBL document CHEMBL3822398

# Tested on: Bacillus subtilis
# test: Bactericidal activity against Bacillus subtilis MTCC 121 incubated for 24 hrs
# Assay type: functional
# setup conditions: MTCC 121, 24 h
experimental endpoint: MBC (µg/mL)

molecule=CCCCCCCCC[C@@H](O)[C@H](CO)n1cc(-c2ccccc2)nn1 rel== measurement=15.6
molecule=CCCCCCCCC[C@@H](O)[C@H](CO)n1cc(-c2cccc(O)c2)nn1 rel== measurement=15.6
molecule=CCCCCCCCC[C@@H](O)[C@H](CO)n1cc(CO)nn1 rel== measurement=31.2
molecule=O=C(O)c1cn(C2CC2)c2cc(N3CCNCC3)c(F)cc2c1=O rel== measurement=1.9
molecule=CCCCCCCCC[C@@H](O)[C@H](CO)n1cc(CCCCCC)nn1 rel== measurement=15.6
molecule=CCCCCCCCC[C@@H](O)[C@@H](N)CO rel=> measurement=250
molecule=CCCCCCCCC[C@@H](O)[C@H](CO)n1cc(CCO)nn1 rel== measurement=31.2

----------
# Test system: Nakaseomyces glabratus
# test: Fungicidal activity against Candida glabrata MTCC 3019 incubated for 24 hrs
# Assay type: functional
# setup conditions: MTCC 3019, 24 h
Each item that follows carries a reported MFC.
experimental endpoint: MFC (µg/mL)

compound="Clc1ccc(COC(Cn2ccnc2)c2ccc(Cl)cc2Cl)c(Cl)c1 (centres undefined)" tgt="Nakaseomyces glabratus" measurement=15.6
compound=CCCCCCCCC[C@@H](O)[C@@H](N)CO tgt="Nakaseomyces glabratus" measurement=7.8
compound=CCCCCCCCC[C@@H](O)[C@H](CO)n1cc(-c2cccc(O)c2)nn1 tgt="Nakaseomyces glabratus" measurement=7.8
compound=CCCCCCCCC[C@@H](O)[C@H](CO)n1cc(-c2ccccc2)nn1 tgt="Nakaseomyces glabratus" measurement=62.5

----------
Each item that follows carries a reported MIC.
# System: Micrococcus luteus
# test: Antibacterial activity against Micrococcus luteus MTCC 2470 incubated for 24 hrs at 37 degC by well diffusion method
# Type: functional
# setup conditions: MTCC 2470, 24 h
experimental endpoint: MIC

molecule=CCCCCCCCC[C@@H](O)[C@H](CO)n1cc(CCO)nn1 tgt="Micrococcus luteus" measurement="15.6 µg/mL"
molecule=CCCCCCCCC[C@@H](O)[C@H](CO)n1cc(CO)nn1 tgt="Micrococcus luteus" measurement="7.8 µg/mL"
molecule=CCCCCCCCC[C@@H](O)[C@H](CO)n1cc(CCCCCC)nn1 tgt="Micrococcus luteus" measurement="7.8 µg/mL"
molecule="O=C(O)c1cn(C2CC2)c2cc(N3CCNCC3)c(F)cc2c1=O [CIPROFLOXACIN]" tgt="Micrococcus luteus" measurement="0.9 µg/mL"
molecule=CCCCCCCCC[C@@H](O)[C@H](CO)n1cc(-c2ccccc2)nn1 tgt="Micrococcus luteus" measurement="3.9 µg/mL"
molecule=CCCCCCCCC[C@@H](O)[C@H](CO)n1cc(-c2ccc3cc(OC)ccc3c2)nn1 tgt="Micrococcus luteus" measurement="> 250 µg/mL"
molecule=CCCCCCCCC[C@@H](O)[C@H](CO)n1cc(-c2cccc(O)c2)nn1 tgt="Micrococcus luteus" measurement="3.9 µg/mL"
molecule=CCCCCCCCC[C@@H](O)[C@@H](N)CO tgt="Micrococcus luteus" measurement="3.9 µg/mL"

----------
Each item that follows carries a reported MFC.
# Test system: Candida albicans
# test: Fungicidal activity against Candida albicans MTCC 4748 incubated for 24 hrs
# Type: functional
# setup conditions: MTCC 4748, 24 h
experimental endpoint: MFC (µg/mL)

molecule="Clc1ccc(COC(Cn2ccnc2)c2ccc(Cl)cc2Cl)c(Cl)c1 (centres undefined) [MICONAZOLE]" experimental_endpoint=MFC measurement=7.8
molecule=CCCCCCCCC[C@@H](O)[C@H](CO)n1cc(-c2ccccc2)nn1 experimental_endpoint=MFC measurement=125
molecule=CCCCCCCCC[C@@H](O)[C@@H](N)CO experimental_endpoint=MFC measurement=31.2
molecule=CCCCCCCCC[C@@H](O)[C@H](CO)n1cc(-c2cccc(O)c2)nn1 experimental_endpoint=MFC measurement=15.6

----------
# System: Candida parapsilosis
# test: Fungicidal activity against Candida parapsilosis MTCC 1744 incubated for 24 hrs
# Assay type: functional
# setup conditions: Lodderomyces parapsilosis, MTCC 1744, 24 h
experimental endpoint: MFC

molecule="Clc1ccc(COC(Cn2ccnc2)c2ccc(Cl)cc2Cl)c(Cl)c1 (centres undefined)" measurement="7.8 µg/mL"
molecule=CCCCCCCCC[C@@H](O)[C@@H](N)CO measurement="62.5 µg/mL"
molecule=CCCCCCCCC[C@@H](O)[C@H](CO)n1cc(-c2ccccc2)nn1 measurement="62.5 µg/mL"
molecule=CCCCCCCCC[C@@H](O)[C@H](CO)n1cc(-c2cccc(O)c2)nn1 measurement="15.6 µg/mL"

----------
# System: Staphylococcus aureus
# test: Bactericidal activity against Staphylococcus aureus MTCC 96 incubated for 24 hrs
# Assay type: functional
# setup conditions: MTCC 96, 24 h
Each item that follows carries a reported log10 MBC.
experimental endpoint: log10 MBC (log10 of the value in µg/mL)

molecule=O=C(O)c1cn(C2CC2)c2cc(N3CCNCC3)c(F)cc2c1=O measurement=-0.05
molecule=CCCCCCCCC[C@@H](O)[C@H](CO)n1cc(CCO)nn1 measurement=1.49
molecule=CCCCCCCCC[C@@H](O)[C@H](CO)n1cc(-c2ccccc2)nn1 measurement=1.19
molecule=CCCCCCCCC[C@@H](O)[C@H](CO)n1cc(-c2cccc(O)c2)nn1 measurement=0.89
molecule=CCCCCCCCC[C@@H](O)[C@H](CO)n1cc(CCCCCC)nn1 measurement=0.59

----------
# System: Pichia sporocuriosa
# test: Fungicidal activity against Issatchenkia hanoiensis MTCC 4755 incubated for 24 hrs
# Assay type: functional
# setup conditions: MTCC 4755, 24 h
experimental endpoint: MFC (µg/mL)

compound=CCCCCCCCC[C@@H](O)[C@H](CO)n1cc(-c2cccc(O)c2)nn1 experimental_endpoint=MFC measurement=7.8
compound=CCCCCCCCC[C@@H](O)[C@@H](N)CO experimental_endpoint=MFC measurement=15.6
compound="Clc1ccc(COC(Cn2ccnc2)c2ccc(Cl)cc2Cl)c(Cl)c1 (centres undefined)" experimental_endpoint=MFC measurement=7.8
compound=CCCCCCCCC[C@@H](O)[C@H](CO)n1cc(-c2ccccc2)nn1 experimental_endpoint=MFC measurement=125

----------
# System: Pichia kudriavzevii
# test: Antifungal activity against Candida krusei MTCC 3020 incubated for 24 hrs at 30 degC by well diffusion method
# Assay type: functional
# setup conditions: MTCC 3020, 24 h
experimental endpoint: MIC (µg/mL)

compound=CCCCCCCCC[C@@H](O)[C@H](CO)n1cc(-c2cccc(O)c2)nn1 tgt="Pichia kudriavzevii" experimental_endpoint=MIC measurement=15.6
compound="Clc1ccc(COC(Cn2ccnc2)c2ccc(Cl)cc2Cl)c(Cl)c1 (centres undefined)" tgt="Pichia kudriavzevii" experimental_endpoint=MIC measurement=7.8
compound=CCCCCCCCC[C@@H](O)[C@@H](N)CO tgt="Pichia kudriavzevii" experimental_endpoint=MIC measurement=15.6
compound=CCCCCCCCC[C@@H](O)[C@H](CO)n1cc(-c2ccccc2)nn1 tgt="Pichia kudriavzevii" experimental_endpoint=MIC measurement=62.5

----------
Each item that follows carries a reported MFC.
# Tested on: Pichia kudriavzevii
# test: Fungicidal activity against Candida krusei MTCC 3020 incubated for 24 hrs
# Type: functional
# setup conditions: MTCC 3020, 24 h
experimental endpoint: MFC (µg/mL)

compound=CCCCCCCCC[C@@H](O)[C@H](CO)n1cc(-c2cccc(O)c2)nn1 measurement=31.2
compound="Clc1ccc(COC(Cn2ccnc2)c2ccc(Cl)cc2Cl)c(Cl)c1 (centres undefined) [MICONAZOLE]" measurement=7.8
compound=CCCCCCCCC[C@@H](O)[C@@H](N)CO measurement=31.2
compound=CCCCCCCCC[C@@H](O)[C@H](CO)n1cc(-c2ccccc2)nn1 measurement=62.5

----------
Each item that follows carries a reported MFC.
# Test system: [Candida] aaseri
# test: Fungicidal activity against Candida aaseri MTCC 1962 incubated for 24 hrs
# Type: functional
# setup conditions: Yamadazyma aaseri, MTCC 1962, 24 h
experimental endpoint: MFC (µg/mL)

compound=CCCCCCCCC[C@@H](O)[C@H](CO)n1cc(-c2cccc(O)c2)nn1 tgt="[Candida] aaseri" measurement=15.6
compound="Clc1ccc(COC(Cn2ccnc2)c2ccc(Cl)cc2Cl)c(Cl)c1 (centres undefined)" tgt="[Candida] aaseri" measurement=7.8
compound=CCCCCCCCC[C@@H](O)[C@@H](N)CO tgt="[Candida] aaseri" measurement=31.2
compound=CCCCCCCCC[C@@H](O)[C@H](CO)n1cc(-c2ccccc2)nn1 tgt="[Candida] aaseri" measurement=31.2

----------
Each item that follows carries a reported MIC.
# Tested on: Candida albicans
# test: Antifungal activity against Candida albicans MTCC 3017 incubated for 24 hrs at 30 degC by well diffusion method
# Assay type: functional
# setup conditions: MTCC 3017, 24 h
experimental endpoint: MIC (µg/mL)

compound="Clc1ccc(COC(Cn2ccnc2)c2ccc(Cl)cc2Cl)c(Cl)c1 (centres undefined)" experimental_endpoint=MIC measurement=7.8
compound=CCCCCCCCC[C@@H](O)[C@@H](N)CO experimental_endpoint=MIC measurement=15.6
compound=CCCCCCCCC[C@@H](O)[C@H](CO)n1cc(-c2ccccc2)nn1 experimental_endpoint=MIC measurement=62.5
compound=CCCCCCCCC[C@@H](O)[C@H](CO)n1cc(-c2cccc(O)c2)nn1 experimental_endpoint=MIC measurement=7.8
